Hello, the source for this data is PubChem BioAssay (NCI), in case you need it.

List of growth inhibition values.
assay.info: NCI Yeast Anticancer Drug Screen. Data for the mec2-1 strain (AID 157)
conditions: S. cerevisiae mec2-1 strain, at 5.0 µM (retest, dose inferred, filed as 0.5), active compounds read high
The panel holds about 79,000 compounds, 15% with a hit somewhere; the sample as a whole holds those more often.
endpoint.name: growth inhibition (%)

> print(dat)
                                    compound  unit.spec  observed.value
 1  COc1ccc(C(=O)CC2(O)C(=O)N(C)c3c(Cl)cc(Cl)cc32)cc1 (stereo unspecified)          %               3
 2  O=C(O)c1c(Cl)c(Cl)c(Cl)c(Cl)c1-c1c2cc(I)c(=O)c(I)c-2oc2c(I)c(O)c(I)cc12          %              99
 3  CCN(CC)Cc1c(-c2ccccc2)oc(-c2ccccc2)c1CN(CC)CC          %               1
 4  O=C(C=P(c1ccccc1)(c1ccccc1)c1ccccc1)CC(=S)CC(=O)C=P(c1ccccc1)(c1ccccc1)c1ccccc1          %              18
 5  O=C1Nc2ccccc2NC(=O)C(=C(c2ccccc2)c2ccccc2)C1=C(c1ccccc1)c1ccccc1          %              94
 6  C1C2OC2C2C1C1CC2C2OC12 (stereo unspecified)          %               0
 7                NNc1cc([N+](=O)[O-])ccc1Cl          %               6
 8  CN(C)C1CCC(N=Nc2cc([N+](=O)[O-])ccc2C(=O)O)CC1 (stereo unspecified)          %               7
 9         CC(C)SCC1CO1 (stereo unspecified)          %              -1
10  CC(=O)N(C1=C(Cl)C(=O)c2ccccc2C1=O)c1ccc(Cl)cc1          %              99
11       Cc1ccc(S(=O)(=O)NC(=O)CC2CCCCC2)cc1          %               9

---

List of growth inhibition values.
assay.info: NCI Yeast Anticancer Drug Screen. Data for the mec2-1 strain (AID 157)
conditions: S. cerevisiae mec2-1 strain, at 50.0 µM (retest, dose inferred, filed as 5.0), active compounds read high
About 79,000 compounds went through this panel and 15% of them were active in at least one assay; those are over-represented in the sample as a whole.

compound	growth inhibition, %
COc1ccc(CC[N+]2(C)COc3cc4oc(=O)cc(C)c4cc3C2)cc1OC (configuration not stated)	-14
Nc1ccc2c(SCCSc3c4ccccc4nc4cc(N)ccc34)c3ccccc3nc2c1	62
O=C(O)c1ccccc1Cc1ccc2c(c1)Cc1ccccc1-2	67
O=C(O)c1ccc2c(c1)CC1(C2)Cc2cc3c(cc2C1=O)CCC3 (configuration not stated)	22
C[C@]12CCC3[C@@H](CC[C@@H]4c5nonc5CC[C@]34C)C1CCC(=O)N2 (some centres not stated)	17
O=C(C=P(c1ccccc1)(c1ccccc1)c1ccccc1)CC(=S)CC(=O)C=P(c1ccccc1)(c1ccccc1)c1ccccc1	69
Nc1ccc(C2CCC[C@H]2c2ccc(N)cc2)cc1 (some centres not stated)	87
CC(C)CCCCCCCCCCCCC(=O)NCC(=O)NC1C(C)OC(Nc2ncnc3nc[nH]c23)C(O)C1O (configuration not stated)	32
C1C2OC2C2C1C1CC2C2OC12 (configuration not stated)	-4
CCOC(=O)N1CCN(CCCOc2ccc(Cl)cc2Cc2ccccc2)CC1	100
c1ccc2c(c1)[nH]c1cc3ccncc3cc12	29
C/C(=N\NC(=S)N1CCN(Cc2ccccc2)CC1)c1ccccn1	85
FC(F)(F)C(C1=NC(C(F)(F)F)(C(F)(F)F)N=C(N2CCOCC2)O1)C(F)(F)F	28
CC(=O)N(c1ccccc1)c1nc2ccccc2s1	-4
Cn1c2ccccc2c2c(C#N)c(C#N)c([N+](=O)[O-])cc21	98
c1ccc(CN2CCc3[nH]c4ccccc4c3C2)cc1	-2
O=S(=O)(Cl)c1ccc(Br)cc1	100
Clc1ccc(-c2noc(CN3CCCCC3)n2)cc1	24
CC(C)N=C1NS(=O)(=O)c2ccccc21	0
N#CC(C#N)=C(c1ccccc1)c1ccccc1	100
CC(C)c1ccc(C(=O)OC2CCCCC2)cc1	100
Cc1ccc2nc(C[n+]3ccc4ccccc4c3)ccc2c1	17
CC(CN(CC(=O)O)CC(=O)O)N(CC(=O)O)CC(=O)O.[Cl][Pd][Cl] (configuration not stated)	87
CCCCCC(CCCCC)C(=O)O	52
NNCc1cc(Cl)c2cccnc2c1O	99
O=C1OC(=O)C2C3CCC(C3=C3CCCCC3)C12 (configuration not stated)	95
CCN(CC)CCNc1nc(N)c2nc(-c3ccccc3)c(-c3ccccc3)nc2n1	22
O=C1c2ccccc2NC(=O)C2C1C(c1ccccc1)CC2(O)c1ccccc1 (configuration not stated)	88
O=C1Oc2ccccc2C1c1ccccc1 (configuration not stated)	87
CC(=O)Oc1c(Cl)cc(Cl)cc1C(c1cc(Cl)cc(Cl)c1OC(C)=O)C(Cl)(Cl)Cl	25
COC(=O)C1CCC(c2ccccc2)CC1C(=O)OC (configuration not stated)	6
CC(C)(C)NC1=NC(C(F)(F)F)(C(F)(F)F)NC(=O)N1	93
Oc1c(Br)c(Br)c(O)c(Br)c1Br	33
C=CC[C@]1(C(C)C(OC(C)=O)c2ccc3c(c2)OCO3)C[C@@H](OC)C=CC1=O (some centres not stated)	98
COC1/C=C/OC2(C)Oc3c(C)c(O)c4c(c3C2=O)C(=O)C=C(NC(=O)/C(C)=C\C=C\C(C)C(OC=O)C(C)C(O)C(C)C(OC(C)=O)C1C)C4=O (configuration not stated)	3
COc1ccc(C2=C(Cl)C(=O)N(c3ccc(OC)cc3OC)C(=O)C2(Cl)Cl)cc1	36
CCC(C(=O)C(C)C(O)C(C)CCc1ccc(C)c(O)c1C(=O)O)C1OC(CC)(C2CCC(O)(CC)C(C)O2)CC1C (configuration not stated)	98
